Tested on: SK-MEL-5
method: Anticancer activity against human SK-MEL-5 cells assessed as cell growth at 10^-5 M after 48 hrs by SRB assay
Type: functional
test context: SK-MEL-5, 48 h, read-out: Activity
I'd be grateful if you could share measured growth at 10 µM for these entries.
Answer by giving the amount and then stating its unit.

See these solved cases before continuing.
COc1cccc(-c2nc3sccn3c2-c2ccnc(NCCNC(=O)Nc3ccccc3)n2)c1 = 81.9%
COc1cccc(-c2nc3sccn3c2-c2ccnc(NCCNC(=O)c3cc(C(F)(F)F)cc(C(F)(F)F)c3)n2)c1 = 75%
O=C(NCCNc1nccc(-c2c(-c3cccc(O)c3)nc3sccn23)n1)c1ccc(N2CCOCC2)c(C(F)(F)F)c1 = 40%

Here is the next item to consider.
Challenge: What does the data say about its growth at 10 µM? Entry: O=C(NCCNc1nccc(-c2c(-c3cccc(O)c3)nc3sccn23)n1)c1cc(C(F)(F)F)cc(C(F)(F)F)c1
Response given: 81.6%

###

Test system: SR
method: Anticancer activity against human SR cells after 48 hrs by SRB assay
Assay type: functional
result type: GI50
Answer by giving the amount and then stating its unit.

See these solved cases before continuing.
COc1cccc(-c2nc3sccn3c2-c2ccnc(NCCNC(=O)Nc3cccc(C(F)(F)F)c3)n2)c1 = 3.75 µM
O=C(NCCNc1nccc(-c2c(-c3cccc(O)c3)nc3sccn23)n1)Nc1cccc(C(F)(F)F)c1 = 6.08 µM
O=C(NCCNc1nccc(-c2c(-c3cccc(O)c3)nc3sccn23)n1)c1ccccc1O = 5.94 µM

Here is the next item to consider.
Challenge: What does the data say about its GI50? Entry: O=C(NCCNc1nccc(-c2c(-c3cccc(O)c3)nc3sccn23)n1)c1ccccc1
Response given: 5.68 µM

###

Tested on: 786-0
method: Anticancer activity against human 786-0 cells assessed as cell growth at 10^-5 M after 48 hrs by SRB assay
Type: functional
test context: 786-0, 48 h, read-out: Activity
Please enter yes where growth at 10 µM is greater than or equal to 80%, and no where it is lower.

O=C(NCCNc1nccc(-c2c(-c3cccc(O)c3)nc3sccn23)n1)c1ccc(N2CCOCC2)c(C(F)(F)F)c1 = no
COc1cccc(-c2nc3sccn3c2-c2ccnc(NCCNC(=O)c3ccccc3O)n2)c1 = yes
COc1cccc(-c2nc3sccn3c2-c2ccnc(NCCNC(=O)Nc3ccccc3)n2)c1 = yes
O=C(NCCNc1nccc(-c2c(-c3cccc(O)c3)nc3sccn23)n1)c1cc(C(F)(F)F)cc(C(F)(F)F)c1 = yes
COc1cccc(-c2nc3sccn3c2-c2ccnc(NCCNC(=O)c3cc(C(F)(F)F)cc(C(F)(F)F)c3)n2)c1 = no

Challenge: Is it the case that COc1cccc(-c2nc3sccn3c2-c2ccnc(NCCNC(=O)Nc3cccc(C(F)(F)F)c3)n2)c1 has growth at 10 µM reaching or exceeding 80%?
Response given: no

Challenge: Is it the case that O=C(NCCNc1nccc(-c2c(-c3cccc(O)c3)nc3sccn23)n1)c1cccc(C(F)(F)F)c1 has growth at 10 µM reaching or exceeding 80%?
Response given: yes

Challenge: Is it the case that COc1cccc(-c2nc3sccn3c2-c2ccnc(NCCNC(=O)c3cccc(C(F)(F)F)c3)n2)c1 has growth at 10 µM reaching or exceeding 80%?
Response given: no

Challenge: Is it the case that COc1cccc(-c2nc3sccn3c2-c2ccnc(NCCNC(=O)c3cc(N4CCOCC4)cc(C(F)(F)F)c3)n2)c1 has growth at 10 µM reaching or exceeding 80%?
Response given: no
